ASSAY INFO: qHTS assay to identify small molecule agonists of H2AX (AID 1224845)
SETUP CONDITIONS: CHO-K1 phospho-H2AX Ser139 HTRF, 3 h; series mostly up to 154 µM
Excerpt: National Center for Advancing Translational Sciences [NCATS] NIH Chemical Genomics Center [NCGC] U.S. Environmental Protection Agency [EPA] National Institutes of Environmental Health Sciences [NIEHS] National Toxicology Program [NTP] U.S. Food and Drug Administration [FDA] HTRF phospho-H2AX (Ser139) assay (Cisbio Bioassays, US) enables the quantitative detection of the histone variant H2AX when phosphorylated on serine 139. […]
Records with an inconclusive call do not appear. The source made the active and inactive calls. Calls follow the shape of the dose curve; as a rule, active = well fitted activation curve with a large enough effect in the signal ratio in the repeat runs (not every such curve was filed as active); inconclusive = weak or mixed curves; inactive = flat fitted curve, though single readings scatter; the % refers to the signal ratio.
Bench note: report the call from 1 (yes) (active), 0 (no) (inactive)

-- ask Which outcome did this test record for the compound "N#C/C=C/C#N" ?
-- reply 0 (no)

-- ask Which outcome did this test record for the compound "ClC1=C(Cl)[C@]2(Cl)[C@@H]3[C@@H](Cl)[C@H](Cl)C[C@@H]3[C@@]1(Cl)C2(Cl)Cl" ?
-- reply 0 (no)

-- ask Which outcome did this test record for the compound "C[C@]12Cc3nonc3C[C@@H]1CC[C@@H]1[C@@H]2CC[C@@]2(C)[C@H]1CC[C@]2(C)O" ?
-- reply 0 (no)

-- ask Which outcome did this test record for the compound "Cc1ccc(OP(=O)(Oc2ccccc2)Oc2ccccc2)cc1" ?
-- reply 0 (no)

-- ask Which outcome did this test record for the compound "Oc1ccc(C(=C(Cl)Cl)c2ccc(O)cc2)cc1" ?
-- reply 0 (no)

-- ask Which outcome did this test record for the compound "NC(=O)c1ccc(N)nc1" ?
-- reply 0 (no)

-- ask Which outcome did this test record for the compound COC12CC[C@@]3(C[C@@H]1C(C)(O)C(C)(C)C)[C@H]1Cc4ccc(O)c5c4[C@@]3(CCN1CC1CC1)[C@H]2O5 (stereo partly drawn) ?
-- reply 1 (yes)

-- ask Which outcome did this test record for the compound CCCCCCCCCCCCCCC(Br)C(=O)O (stereo not drawn) ?
-- reply 0 (no)

-- ask Which outcome did this test record for the compound CCCCCCCCCCCCCN1CC(C)OC(C)C1 (stereo not drawn) ?
-- reply 0 (no)

-- ask Which outcome did this test record for the compound "Clc1ccc(C(c2ccc(Cl)cc2)C(Cl)(Cl)Cl)cc1" ?
-- reply 1 (yes)

-- ask Which outcome did this test record for the compound "CCCCCCCCCCBr" ?
-- reply 0 (no)

-- ask Which outcome did this test record for the compound COc1cc(N)c(Cl)cc1C(=O)NC1CN2CCC1CC2 (stereo not drawn) ?
-- reply 0 (no)

-- ask Which outcome did this test record for the compound CC(C)(C)C(O)/C(=C\c1ccc(Cl)cc1Cl)n1cncn1 (stereo not drawn) ?
-- reply 0 (no)

-- ask Which outcome did this test record for the compound "ClCc1ccc(Cl)cc1Cl" ?
-- reply 0 (no)

-- ask Which outcome did this test record for the compound "COc1ccc([N+](=O)[O-])cc1O" ?
-- reply 0 (no)

-- ask Which outcome did this test record for the compound "Clc1ccc(Oc2ccccc2)cc1" ?
-- reply 0 (no)

-- ask Which outcome did this test record for the compound "CCCSP(=O)(OCC)SCCC" ?
-- reply 0 (no)

-- ask Which outcome did this test record for the compound "CC(C)(C)c1cc([N+](=O)[O-])cc(C(C)(C)C)c1O" ?
-- reply 0 (no)

-- ask Which outcome did this test record for the compound CC1(C)C(/C=C(\Cl)C(F)(F)F)C1C(=O)OC(C#N)c1cccc(Oc2ccccc2)c1 (stereo not drawn) ?
-- reply 0 (no)

-- ask Which outcome did this test record for the compound N#CCCC(Br)(C#N)CBr (stereo not drawn) ?
-- reply 1 (yes)

-- ask Which outcome did this test record for the compound "Cc1cc(Cl)ccc1O[C@H](C)C(=O)O" ?
-- reply 0 (no)

-- ask Which outcome did this test record for the compound "CC(C)N1C(=O)N(c2ccccc2)CSC1=NC(C)(C)C" ?
-- reply 0 (no)

-- ask Which outcome did this test record for the compound "N#Cc1ccc(O)cc1" ?
-- reply 0 (no)

-- ask Which outcome did this test record for the compound "CC(=O)Nc1ccc2c(c1)Cc1ccccc1-2" ?
-- reply 0 (no)

-- ask Which outcome did this test record for the compound BrCC(Br)c1ccccc1 (stereo not drawn) ?
-- reply 0 (no)

-- ask Which outcome did this test record for the compound "N#C/C=C/c1ccccc1" ?
-- reply 0 (no)

-- ask Which outcome did this test record for the compound "ClC1=C(Cl)[C@]2(Cl)[C@@H]3[C@@H](Cl)[C@@H](Cl)C[C@@H]3[C@@]1(Cl)C2(Cl)Cl" ?
-- reply 0 (no)

-- ask Which outcome did this test record for the compound "COP(N)(=S)OC" ?
-- reply 0 (no)

-- ask Which outcome did this test record for the compound "COP(=S)(OC)Oc1cc(Cl)c(Br)cc1Cl" ?
-- reply 0 (no)

-- ask Which outcome did this test record for the compound "N#CSCSC#N" ?
-- reply 1 (yes)

-- ask Which outcome did this test record for the compound "Cc1cc(SCc2sc(-c3ccc(C(F)(F)F)c(F)c3)nc2C)ccc1OCC(=O)O" ?
-- reply 0 (no)

-- ask Which outcome did this test record for the compound "Cc1ccc(CCl)cc1" ?
-- reply 0 (no)

-- ask Which outcome did this test record for the compound "O=C(CCCN1CCC2(CC1)C(=O)NCN2c1ccccc1)c1ccc(F)cc1" ?
-- reply 0 (no)

-- ask Which outcome did this test record for the compound "O=C(O)COc1nc(Cl)c(Cl)cc1Cl" ?
-- reply 0 (no)

-- ask Which outcome did this test record for the compound "CCCOCC(=Nc1ccc(Cl)cc1C(F)(F)F)n1ccnc1" ?
-- reply 0 (no)

-- ask Which outcome did this test record for the compound "Oc1ccccc1Br" ?
-- reply 0 (no)

-- ask Which outcome did this test record for the compound "Clc1ccc(C(Cl)(Cl)Cl)c(Cl)c1" ?
-- reply 0 (no)

-- ask Which outcome did this test record for the compound "CC(C)[C@H](C(=O)O[C@H](C#N)c1cccc(Oc2ccccc2)c1)c1ccc(Cl)cc1" ?
-- reply 0 (no)

-- ask Which outcome did this test record for the compound "O=CC(Br)(Br)Br" ?
-- reply 1 (yes)

-- ask Which outcome did this test record for the compound "CCCN(CCC)c1c([N+](=O)[O-])cc(S(N)(=O)=O)cc1[N+](=O)[O-]" ?
-- reply 1 (yes)

-- ask Which outcome did this test record for the compound "COS(=O)(=O)c1ccc(C)cc1" ?
-- reply 0 (no)

-- ask Which outcome did this test record for the compound "CCS(=O)(=O)c1cccnc1S(=O)(=O)NC(=O)Nc1nc(OC)cc(OC)n1" ?
-- reply 0 (no)

-- ask Which outcome did this test record for the compound "ClC1=C(Cl)[C@]2(Cl)[C@H]3[C@H]([C@H]4C=C[C@H]3C4)[C@@]1(Cl)C2(Cl)Cl" ?
-- reply 0 (no)

-- ask Which outcome did this test record for the compound "CC(C)CC(C)(c1ccc(O)cc1)c1ccc(O)cc1" ?
-- reply 0 (no)

-- ask Which outcome did this test record for the compound CCOc1cc(C(C)(C)C)ccc1C1COC(c2c(F)cccc2F)=N1 (stereo not drawn) ?
-- reply 0 (no)

-- ask Which outcome did this test record for the compound "CCOCCOC(C)=O" ?
-- reply 0 (no)

-- ask Which outcome did this test record for the compound "CC(C)OS(C)(=O)=O" ?
-- reply 0 (no)

-- ask Which outcome did this test record for the compound "Cc1cc(C(C)(C)c2cc(C)c(O)c(C)c2)cc(C)c1O" ?
-- reply 0 (no)

-- ask Which outcome did this test record for the compound "CCN" ?
-- reply 0 (no)

-- ask Which outcome did this test record for the compound "Oc1cc(Cl)c(Cl)c(Cl)c1" ?
-- reply 0 (no)

-- ask Which outcome did this test record for the compound "O=[N+]([O-])c1cc(Cl)ccc1Cl" ?
-- reply 0 (no)

-- ask Which outcome did this test record for the compound CC(C)CC(C)N (stereo not drawn) ?
-- reply 0 (no)

-- ask Which outcome did this test record for the compound "CC(C)CCCCCCCOP(=O)(Oc1ccccc1)Oc1ccccc1" ?
-- reply 0 (no)
